As shown below, each of these molecules has a reported FR value.
Test system: P388
Assay: Fold resistance calculated as the inhibition concentration ratio between retrovirally transformed murine P388/VMDRC.04 and parental P388 cells
Type: functional

Query Smiles	FR
C=C1C[C@@H]2CC[C@@]34C[C@@H]5O[C@@H]6C(O[C@H]7CC[C@H](CC(=O)C[C@@H]8[C@@H](OC)[C@@H](C[C@H](O)CC#N)O[C@H]8C[C@H]8O[C@@H](CC[C@@H]1O2)C[C@@H](C)C8=C)O[C@@H]7[C@@H]6O3)[C@H]5O4	7
C=C1C[C@@H]2CC[C@@]34C[C@@H]5O[C@@H]6C(O[C@H]7CC[C@H](CC(=O)C[C@@H]8[C@@H](OC)[C@@H](C[C@@H](O)CO)O[C@H]8C[C@H]8O[C@@H](CC[C@@H]1O2)C[C@@H](C)C8=C)O[C@@H]7[C@@H]6O3)[C@H]5O4	13
C=C1C[C@@H]2CC[C@@]34C[C@@H]5O[C@@H]6C(O[C@H]7CC[C@H](CC(=O)C[C@@H]8[C@@H](OC)[C@@H](C[C@H](O)CN9CCOCC9)O[C@H]8C[C@H]8O[C@@H](CC[C@@H]1O2)C[C@@H](C)C8=C)O[C@@H]7[C@@H]6O3)[C@H]5O4	4.7
